# Target under test: Sodium channel protein type 4 subunit alpha (Homo sapiens)
# Sequence (P35499 whole entry): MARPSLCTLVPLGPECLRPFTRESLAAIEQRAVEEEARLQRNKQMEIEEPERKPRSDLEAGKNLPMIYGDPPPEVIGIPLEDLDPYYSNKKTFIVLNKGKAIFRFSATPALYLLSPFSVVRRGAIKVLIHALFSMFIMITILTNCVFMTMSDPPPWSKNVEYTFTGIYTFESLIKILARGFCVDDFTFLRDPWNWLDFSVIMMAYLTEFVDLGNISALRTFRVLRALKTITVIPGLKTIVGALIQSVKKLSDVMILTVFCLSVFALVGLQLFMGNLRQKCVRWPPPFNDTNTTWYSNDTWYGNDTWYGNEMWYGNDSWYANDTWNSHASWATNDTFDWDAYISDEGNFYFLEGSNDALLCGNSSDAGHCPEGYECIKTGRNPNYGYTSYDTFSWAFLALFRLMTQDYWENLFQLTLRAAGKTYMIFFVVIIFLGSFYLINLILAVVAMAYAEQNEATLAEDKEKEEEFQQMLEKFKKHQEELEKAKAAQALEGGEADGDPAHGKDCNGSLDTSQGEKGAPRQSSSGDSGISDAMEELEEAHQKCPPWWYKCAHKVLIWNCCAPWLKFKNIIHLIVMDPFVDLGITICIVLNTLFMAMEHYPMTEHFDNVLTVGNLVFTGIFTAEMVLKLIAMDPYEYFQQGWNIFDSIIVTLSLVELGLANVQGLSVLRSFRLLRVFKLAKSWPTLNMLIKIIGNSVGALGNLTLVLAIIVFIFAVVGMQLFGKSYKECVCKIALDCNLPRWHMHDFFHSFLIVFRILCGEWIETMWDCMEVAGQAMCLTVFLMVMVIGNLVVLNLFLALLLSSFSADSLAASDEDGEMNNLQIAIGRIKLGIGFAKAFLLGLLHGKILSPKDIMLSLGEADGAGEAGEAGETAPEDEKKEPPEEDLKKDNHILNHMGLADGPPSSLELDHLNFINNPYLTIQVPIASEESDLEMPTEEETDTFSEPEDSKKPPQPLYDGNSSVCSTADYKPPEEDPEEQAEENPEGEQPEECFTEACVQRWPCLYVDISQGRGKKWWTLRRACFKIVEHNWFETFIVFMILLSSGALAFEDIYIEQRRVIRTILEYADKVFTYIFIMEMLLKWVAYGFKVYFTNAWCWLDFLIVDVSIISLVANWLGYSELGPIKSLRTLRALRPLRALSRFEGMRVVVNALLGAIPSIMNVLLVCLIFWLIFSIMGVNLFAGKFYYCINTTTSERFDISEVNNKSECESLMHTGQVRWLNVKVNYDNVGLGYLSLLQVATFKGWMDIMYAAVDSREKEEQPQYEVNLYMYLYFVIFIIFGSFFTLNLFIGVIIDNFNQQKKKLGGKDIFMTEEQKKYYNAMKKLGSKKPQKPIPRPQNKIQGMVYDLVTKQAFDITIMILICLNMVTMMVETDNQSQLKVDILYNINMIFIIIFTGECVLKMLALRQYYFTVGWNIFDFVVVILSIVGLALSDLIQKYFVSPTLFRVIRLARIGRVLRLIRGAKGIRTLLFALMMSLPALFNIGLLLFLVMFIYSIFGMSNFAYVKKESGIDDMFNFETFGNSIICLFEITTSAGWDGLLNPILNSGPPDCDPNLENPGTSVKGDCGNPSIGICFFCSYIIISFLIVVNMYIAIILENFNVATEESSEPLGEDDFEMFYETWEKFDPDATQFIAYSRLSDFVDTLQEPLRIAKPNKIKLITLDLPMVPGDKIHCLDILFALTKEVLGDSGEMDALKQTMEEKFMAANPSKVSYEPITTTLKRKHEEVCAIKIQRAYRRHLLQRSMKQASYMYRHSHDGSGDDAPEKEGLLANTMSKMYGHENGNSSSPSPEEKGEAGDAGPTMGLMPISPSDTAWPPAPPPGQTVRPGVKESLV
# Measurement description: Inhibition of human Nav1.4
pIC50: −log10 of the molar value.
Readout: pIC50

1) C[C@@H](C(N)=O)[C@H](N)c1nc2ccc(C(C)(C)C)cc2[nH]1    < 4.52

----------
# Target under test: Sodium channel protein type 10 subunit alpha (Homo sapiens, UniProt Q9Y5Y9)
# Sequence (Q9Y5Y9 whole entry): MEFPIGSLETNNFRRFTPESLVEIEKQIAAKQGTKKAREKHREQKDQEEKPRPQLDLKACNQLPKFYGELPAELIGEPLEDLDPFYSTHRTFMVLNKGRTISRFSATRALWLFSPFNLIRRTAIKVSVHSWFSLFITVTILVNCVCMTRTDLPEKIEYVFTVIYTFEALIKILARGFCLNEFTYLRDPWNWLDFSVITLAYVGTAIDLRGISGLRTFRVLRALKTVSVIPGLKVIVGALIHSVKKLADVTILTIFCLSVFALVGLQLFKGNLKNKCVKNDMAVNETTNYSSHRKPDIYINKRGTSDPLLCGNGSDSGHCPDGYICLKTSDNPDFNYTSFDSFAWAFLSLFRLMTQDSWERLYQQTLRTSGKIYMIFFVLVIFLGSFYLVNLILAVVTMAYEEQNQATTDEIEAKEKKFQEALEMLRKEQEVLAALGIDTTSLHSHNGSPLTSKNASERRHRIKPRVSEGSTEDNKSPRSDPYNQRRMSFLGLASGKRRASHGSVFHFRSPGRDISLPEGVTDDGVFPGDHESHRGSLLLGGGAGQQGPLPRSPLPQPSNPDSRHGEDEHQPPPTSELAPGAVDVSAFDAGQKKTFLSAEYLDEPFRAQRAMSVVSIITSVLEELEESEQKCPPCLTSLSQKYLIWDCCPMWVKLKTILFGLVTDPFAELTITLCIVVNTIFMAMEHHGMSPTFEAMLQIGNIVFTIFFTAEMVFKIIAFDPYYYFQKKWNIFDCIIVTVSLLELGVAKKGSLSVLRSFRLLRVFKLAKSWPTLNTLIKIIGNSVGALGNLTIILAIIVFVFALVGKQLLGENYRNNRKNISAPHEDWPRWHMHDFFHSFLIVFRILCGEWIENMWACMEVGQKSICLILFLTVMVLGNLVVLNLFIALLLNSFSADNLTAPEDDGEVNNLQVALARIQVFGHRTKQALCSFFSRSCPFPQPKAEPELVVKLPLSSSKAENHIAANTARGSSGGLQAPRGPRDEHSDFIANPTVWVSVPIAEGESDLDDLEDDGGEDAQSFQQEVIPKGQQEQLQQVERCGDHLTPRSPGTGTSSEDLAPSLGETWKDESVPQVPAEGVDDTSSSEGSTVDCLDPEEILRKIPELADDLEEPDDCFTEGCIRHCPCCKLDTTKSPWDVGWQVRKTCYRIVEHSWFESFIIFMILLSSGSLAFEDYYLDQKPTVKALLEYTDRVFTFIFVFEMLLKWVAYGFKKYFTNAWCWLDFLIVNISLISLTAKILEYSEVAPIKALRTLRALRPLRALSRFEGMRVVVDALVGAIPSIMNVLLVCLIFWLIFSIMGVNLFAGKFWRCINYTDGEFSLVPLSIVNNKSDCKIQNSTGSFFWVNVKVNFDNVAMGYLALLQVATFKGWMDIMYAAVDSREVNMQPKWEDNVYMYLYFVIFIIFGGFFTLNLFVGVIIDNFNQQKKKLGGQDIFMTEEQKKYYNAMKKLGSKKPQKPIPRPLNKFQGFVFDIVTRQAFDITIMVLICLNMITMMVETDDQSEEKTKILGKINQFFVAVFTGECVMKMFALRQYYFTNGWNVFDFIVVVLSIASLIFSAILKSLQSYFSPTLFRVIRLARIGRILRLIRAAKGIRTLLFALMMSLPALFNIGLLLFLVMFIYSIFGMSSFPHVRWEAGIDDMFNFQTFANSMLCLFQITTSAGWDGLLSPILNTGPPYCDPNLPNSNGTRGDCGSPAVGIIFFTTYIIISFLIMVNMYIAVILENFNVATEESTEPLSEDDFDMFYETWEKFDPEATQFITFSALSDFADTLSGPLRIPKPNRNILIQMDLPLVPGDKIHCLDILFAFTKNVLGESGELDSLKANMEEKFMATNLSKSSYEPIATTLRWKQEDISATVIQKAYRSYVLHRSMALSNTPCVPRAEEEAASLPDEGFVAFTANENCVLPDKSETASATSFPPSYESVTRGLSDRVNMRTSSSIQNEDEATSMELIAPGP
# Measurement description: Inhibition of human Nav1.8 expressed in HEK cells by patch-clamp electrophysiology method
Entries are grouped by IC50 into these classes: range A = under 40 nM, range B = from 40 nM up to 600 nM, range C = 600 nM and over

1. CC(C)(C)c1ccc2[nH]c([C@H]3CCCN3)nc2c1    range B
2. CO[C@H](C)[C@H](N)c1nc2cc(-c3ccc(C#N)cc3F)ccc2[nH]1    range A
3. CO[C@H](C)[C@H](N)c1nc2cc(OC(F)(F)F)ccc2[nH]1    range C
4. CC(C)(C)c1ccc2nc([C@H](N)CO)cnc2c1    range C
5. CCC[C@H](N)c1nc2cc(C(C)(C)C)ccc2[nH]1    range A
6. C[C@@H](O)[C@H](N)c1nc2cc(C(C)(C)C#N)ccc2[nH]1    range C
7. C[C@@H](C(N)=O)[C@H](N)c1nc2ccc(C(C)(C)C)cc2[nH]1    range A
8. CC(C)c1ccc2[nH]c([C@@H](N)[C@@H](C)O)nc2c1    range B
9. C[C@@H](O)[C@H](N)c1nc2cc(S(F)(F)(F)(F)F)ccc2[nH]1    range B
10. CC(C)(C)c1ccc2ncc([C@@H](N)CO)nc2c1    range C
11. CO[C@H](C)[C@H](N)c1nc2cc(-c3ccc(C#N)nc3)ccc2[nH]1    range C
12. CC(C)(C)c1ccc2ncc([C@H](N)CO)nc2c1    range C
13. CC(C)(C)c1ccc2[nH]c([C@H]3C[C@@H](O)CN3)nc2c1    range A
14. C[C@@H](O)[C@H](N)c1nc2cc(C(F)(F)F)ccc2[nH]1    range B
15. C[C@H](O)[C@@H](N)c1nc2cc(-c3ccc(C#N)cc3)ccc2[nH]1    range B
16. CC(C)(C)c1ccc2nc([C@@H](N)CO)cnc2c1    range C
17. CC(C)(C)c1ccc2[nH]c([C@@](C)(N)CO)nc2c1    range B
18. CCCC(O)c1nc2cc(C(C)(C)C)ccc2[nH]1 (stereo not drawn)    range C
19. CN[C@@H](CC(N)=O)c1nc2cc(C(C)(C)C)ccc2[nH]1    range C
20. CO[C@H](C)[C@H](N)c1nc2cc(C(C)(C)C)ccc2[nH]1    range A
21. CCC(C)c1ccc2[nH]c([C@@H](N)CO)nc2c1 (stereo partly drawn)    range C
